target: Major prion protein (Mus musculus); test: Inhibition of PrPC polymerization by PrP-res at 100 uM; assay type: functional; design: scale not given: the % may be the effect or the level left
For each record, write down the corresponding Control.
Dear colleague, please return just the value in %, with no unit written.

Briefly, Control measured for O=C(O)c1cc(/C=C/c2ccc(/C=C/c3ccc(O)c(C(=O)O)c3)cc2)ccc1O : 72

Briefly, Control measured for COc1ccc(C(=O)O)cc1NS(=O)(=O)c1ccc(-c2ccc(S(=O)(=O)Nc3cc(C(=O)O)ccc3OC)cc2)cc1 : 62

Briefly, Control measured for Oc1ccccc1/N=C/c1ccc(/C=N/c2ccccc2O)cc1 : 85

Briefly, Control measured for COC(=O)c1ccc(NC(=O)c2ccc(C(=O)Nc3ccc(C(=O)OC)cc3)cc2)cc1 : 100

Briefly, Control measured for COC(=O)c1ccc(OC)c(NCc2ccc(CNc3cc(C(=O)OC)ccc3OC)cc2)c1 : 20

Briefly, Control measured for O=C(O)c1cc(NS(=O)(=O)c2ccc(-c3ccc(S(=O)(=O)Nc4cc(C(=O)O)cc(C(=O)O)c4)cc3)cc2)cc(C(=O)O)c1 : 2

Briefly, Control measured for N#Cc1ccc(NC(=O)c2ccc(-c3ccc(C(=O)Nc4ccc(C#N)cc4)cc3)cc2)cc1 : 196

Briefly, Control measured for O=C(O)c1ccc(C/N=C/c2ccc(/C=N/Cc3ccc(C(=O)O)cc3)cc2)cc1 : 117

Briefly, Control measured for O=C(Oc1ccccc1)c1ccc(NS(=O)(=O)c2ccc(-c3ccc(S(=O)(=O)Nc4ccc(C(=O)Oc5ccccc5)c(O)c4)cc3)cc2)cc1O : 90

Briefly, Control measured for Oc1ccccc1/N=C/c1ccc(-c2ccc(/C=N/c3ccccc3O)cc2)cc1 : 281

Briefly, Control measured for COC(=O)c1ccc(NS(=O)(=O)c2ccc(-c3ccc(S(=O)(=O)Nc4ccc(C(=O)OC)cc4O)cc3)cc2)c(O)c1 : 30

Briefly, Control measured for COC(=O)c1cc(NC(=O)c2ccc(C(=O)Nc3cc(C(=O)OC)cc(C(=O)OC)c3)cc2)cc(C(=O)OC)c1 : 147

Briefly, Control measured for Oc1ccc(/N=C/c2ccc(-c3ccc(/C=N/c4ccc(O)cc4)cc3)cc2)cc1 : 104

Briefly, Control measured for COC(=O)c1ccc(NCc2ccc(CNc3ccc(C(=O)OC)cc3O)cc2)c(O)c1 : 166

Briefly, Control measured for COc1ccc(C(=O)O)cc1/N=C/c1ccc(/C=N/c2cc(C(=O)O)ccc2OC)cc1 : 11

Briefly, Control measured for O=[N+]([O-])c1ccc(/N=C/c2ccc(/C=N/c3ccc([N+](=O)[O-])cc3O)cc2)c(O)c1 : 109

Briefly, Control measured for COc1cc(NC(=O)c2ccc(-c3ccc(C(=O)Nc4ccc(C(=O)O)c(OC)c4)cc3)cc2)ccc1C(=O)O : 472

Briefly, Control measured for COC(=O)c1ccc(OC)c(NS(=O)(=O)c2ccc(-c3ccc(S(=O)(=O)Nc4cc(C(=O)OC)ccc4OC)cc3)cc2)c1 : 77

----------
molecular target: Major prion protein (Mus musculus); assay: Inhibition of PrP-res formation in SMB (Scrapie mouse brain) cells at 10 uM; format: functional; call rule not given here
Tick one outcome: active, inactive

Query block: Could you kindly confirm the outcome this assay logged for Cc1ccc(/N=C/c2ccc(/C=N/c3ccc(C)cc3O)cc2)c(O)c1 ?
Result block: inactive

Query block: Could you kindly confirm the outcome this assay logged for N#Cc1ccc(NC(=O)c2ccc(C(=O)Nc3ccc(C#N)cc3)cc2)cc1 ?
Result block: inactive

Query block: Could you kindly confirm the outcome this assay logged for COC(=O)c1ccc(OC)c(/N=C/c2ccc(-c3ccc(/C=N/c4cc(C(=O)OC)ccc4OC)cc3)cc2)c1 ?
Result block: inactive

Query block: Could you kindly confirm the outcome this assay logged for COC(=O)c1ccc(OC)c(NCc2ccc(CNc3cc(C(=O)OC)ccc3OC)cc2)c1 ?
Result block: active

Query block: Could you kindly confirm the outcome this assay logged for COC(=O)c1ccc(OC)c(NS(=O)(=O)c2ccc(-c3ccc(S(=O)(=O)Nc4cc(C(=O)OC)ccc4OC)cc3)cc2)c1 ?
Result block: inactive

Query block: Could you kindly confirm the outcome this assay logged for COC(=O)c1ccc(NS(=O)(=O)c2ccc(-c3ccc(S(=O)(=O)Nc4ccc(C(=O)OC)cc4O)cc3)cc2)c(O)c1 ?
Result block: inactive

Query block: Could you kindly confirm the outcome this assay logged for COC(=O)c1ccc(NC(=O)c2ccc(-c3ccc(C(=O)Nc4ccc(C(=O)OC)cc4O)cc3)cc2)c(O)c1 ?
Result block: active

Query block: Could you kindly confirm the outcome this assay logged for COC(=O)c1ccc(/N=C/c2ccc(-c3ccc(/C=N/c4ccc(C(=O)OC)cc4O)cc3)cc2)c(O)c1 ?
Result block: inactive

Query block: Could you kindly confirm the outcome this assay logged for O=C(Oc1ccccc1)c1ccc(/N=C/c2ccc(/C=N/c3ccc(C(=O)Oc4ccccc4)c(O)c3)cc2)cc1O ?
Result block: inactive

Query block: Could you kindly confirm the outcome this assay logged for COC(=O)c1ccc(NC(=O)c2ccc(C(=O)Nc3ccc(C(=O)OC)cc3O)cc2)c(O)c1 ?
Result block: active

Query block: Could you kindly confirm the outcome this assay logged for COC(=O)c1ccc(/N=C/c2ccc(/C=N/c3ccc(C(=O)OC)c(O)c3)cc2)cc1O ?
Result block: inactive

Query block: Could you kindly confirm the outcome this assay logged for O=C(Nc1ccc([N+](=O)[O-])cc1O)c1ccc(-c2ccc(C(=O)Nc3ccc([N+](=O)[O-])cc3O)cc2)cc1 ?
Result block: inactive

Query block: Could you kindly confirm the outcome this assay logged for COc1ccc(C(=O)O)cc1NS(=O)(=O)c1ccc(-c2ccc(S(=O)(=O)Nc3cc(C(=O)O)ccc3OC)cc2)cc1 ?
Result block: inactive

Query block: Could you kindly confirm the outcome this assay logged for COC(=O)c1ccc(NCc2ccc(CNc3ccc(C(=O)OC)cc3O)cc2)c(O)c1 ?
Result block: active

Query block: Could you kindly confirm the outcome this assay logged for O=C(O)c1cc(NC(=O)c2ccc(C(=O)Nc3cc(C(=O)O)cc(C(=O)O)c3)cc2)cc(C(=O)O)c1 ?
Result block: inactive

Query block: Could you kindly confirm the outcome this assay logged for O=C(Nc1ccc([N+](=O)[O-])cc1O)c1ccc(C(=O)Nc2ccc([N+](=O)[O-])cc2O)cc1 ?
Result block: inactive

Query block: Could you kindly confirm the outcome this assay logged for COC(=O)c1ccc(/N=C/c2ccc(/C=N/c3ccc(C(=O)OC)cc3O)cc2)c(O)c1 ?
Result block: inactive

----------
target: Major prion protein (Mus musculus); test: Inhibition of PrP-res formation in SMB (Scrapie mouse brain) cells at 10 uM; type: functional; call rule not given here
Tick one outcome: True (active), False (inactive)

Query block: Could you kindly confirm the outcome this assay logged for COC(=O)c1ccc(NC(=O)c2ccc(-c3ccc(C(=O)Nc4ccc(C(=O)OC)c(OC)c4)cc3)cc2)cc1OC ?
Result block: True

Query block: Could you kindly confirm the outcome this assay logged for COC(=O)c1ccc(NC(=O)c2ccc(C(=O)Nc3ccc(C(=O)OC)cc3)cc2)cc1 ?
Result block: False

Query block: Could you kindly confirm the outcome this assay logged for COC(=O)c1cc(NC(=O)c2ccc(-c3ccc(C(=O)Nc4ccc(O)c(C(=O)OC)c4)cc3)cc2)ccc1O ?
Result block: True

Query block: Could you kindly confirm the outcome this assay logged for CCOC(=O)c1ccc(/N=C/c2ccc(/C=N/c3ccc(C(=O)OCC)c(O)c3)cc2)cc1O ?
Result block: False

Query block: Could you kindly confirm the outcome this assay logged for O=C(O)c1ccc(/N=C/c2ccc(/C=N/c3ccc(C(=O)O)cc3O)cc2)c(O)c1 ?
Result block: False

Query block: Could you kindly confirm the outcome this assay logged for O=C(O)c1ccc(NCc2ccc(CNc3ccc(C(=O)O)cc3O)cc2)c(O)c1 ?
Result block: False

Query block: Could you kindly confirm the outcome this assay logged for COC(=O)c1ccc(NC(=O)c2ccc(-c3ccc(C(=O)Nc4ccc(C(=O)OC)c(O)c4)cc3)cc2)cc1O ?
Result block: False

Query block: Could you kindly confirm the outcome this assay logged for Oc1ccccc1/N=C/c1ccc(-c2ccc(/C=N/c3ccccc3O)cc2)cc1 ?
Result block: False

Query block: Could you kindly confirm the outcome this assay logged for Oc1ccccc1NCc1ccc(CNc2ccccc2O)cc1 ?
Result block: True

Query block: Could you kindly confirm the outcome this assay logged for O=C(O)c1cc(NS(=O)(=O)c2ccc(-c3ccc(S(=O)(=O)Nc4cc(C(=O)O)cc(C(=O)O)c4)cc3)cc2)cc(C(=O)O)c1 ?
Result block: False

Query block: Could you kindly confirm the outcome this assay logged for COc1ccc(C(=O)O)cc1/N=C/c1ccc(/C=N/c2cc(C(=O)O)ccc2OC)cc1 ?
Result block: False

Query block: Could you kindly confirm the outcome this assay logged for Oc1ccccc1/N=C/c1ccc(/C=N/c2ccccc2O)cc1 ?
Result block: False

Query block: Could you kindly confirm the outcome this assay logged for C(=N\c1ccccc1)/c1ccc(/C=N/c2ccccc2)cc1 ?
Result block: False

Query block: Could you kindly confirm the outcome this assay logged for O=[N+]([O-])c1ccc(/N=C/c2ccc(/C=N/c3ccc([N+](=O)[O-])cc3O)cc2)c(O)c1 ?
Result block: False

Query block: Could you kindly confirm the outcome this assay logged for O=C(Nc1ccccc1)c1ccc(C(=O)Nc2ccccc2)cc1 ?
Result block: False

Query block: Could you kindly confirm the outcome this assay logged for O=C(O)c1ccc(/N=C/c2ccc(/C=N/c3ccc(C(=O)O)cc3)cc2)cc1 ?
Result block: False

Query block: Could you kindly confirm the outcome this assay logged for CCOC(=O)c1cc(/N=C/c2ccc(/C=N/c3ccc(O)c(C(=O)OCC)c3)cc2)ccc1O ?
Result block: False

Query block: Could you kindly confirm the outcome this assay logged for O=C(Nc1ccccc1)c1ccc(-c2ccc(C(=O)Nc3ccccc3)cc2)cc1 ?
Result block: False

Query block: Could you kindly confirm the outcome this assay logged for O=C(O)c1ccc(NS(=O)(=O)c2ccc(-c3ccc(S(=O)(=O)Nc4ccc(C(=O)O)cc4O)cc3)cc2)c(O)c1 ?
Result block: False
